experiment: Evaluation of absorption wavelength property in CHCl3 solution; format: physicochemical; set-up: unit not given here; settings: molar absorption coefficient
quantity: ε

Reference set, count: 5
>>> observed_measurement("CCCCN(CCCC)c1ccc(/C=C(\\C#N)C(=O)Oc2ccc(S(=O)(=O)c3ccc(OC(=O)/C(C#N)=C/c4ccc(N(CCCC)CCCC)cc4)cc3)cc2)cc1")
135000
>>> observed_measurement("CN(CCO)c1ccc(/C=C(\\C#N)C(=O)OCC(C)(COC(=O)/C(C#N)=C/c2ccc(N(C)CCO)cc2)COC(=O)/C(C#N)=C/c2ccc(N(C)CCO)cc2)cc1")
119000
>>> observed_measurement("CCN(CC)c1ccc(/C=C(\\C#N)C(=O)OCCCCCCCOC(=O)/C(C#N)=C/c2ccc(N(CC)CC)cc2)cc1")
110000
>>> observed_measurement("CCN(CC)c1ccc(/C=C(\\C#N)C(=O)OCC(COC(=O)/C(C#N)=C/c2ccc(N(CC)CC)cc2)(COC(=O)/C(C#N)=C/c2ccc(N(CC)CC)cc2)COC(=O)/C(C#N)=C/c2ccc(N(CC)CC)cc2)cc1")
210000
>>> observed_measurement("CCOCCOC(=O)C(C#N)=C(C)c1ccc(N(CC)CC)cc1 [Comparative Compound No. 2, reference compound]")
57200

(A) CC(=O)OCCN(CCOC(C)=O)c1ccc(/C=C(\C#N)C(=O)OCCCCCCCOC(=O)/C(C#N)=C/c2ccc(N(CCOC(C)=O)CCOC(C)=O)cc2)cc1
(B) CCN(CC)c1ccc(/C=C(\C#N)C(=O)OCC(CC)(COC(=O)/C(C#N)=C/c2ccc(N(CC)CC)cc2)COC(=O)/C(C#N)=C/c2ccc(N(CC)CC)cc2)cc1
Please choose the item with the lower ε value from this pair: A and B Could you answer with the label of the item you picked?
A
(A: 89900, B: 152000)

(A) CCN(CC)c1ccc(/C=C(\C#N)C(=O)Oc2ccc(-c3nc(-c4ccc(OC(=O)/C(C#N)=C/c5ccc(N(CC)CC)cc5)cc4)nc(-c4ccc(OC(=O)/C(C#N)=C/c5ccc(N(CC)CC)cc5)cc4)n3)cc2)cc1
(B) CCN(CC)c1ccc(/C=C(\C#N)C(=O)NCC(C)NC(=O)/C(C#N)=C/c2ccc(N(CC)CC)cc2)cc1 (centres unmarked)
Recorded ε values differ for A and B ; which one is higher? Could you answer with the label of the item you picked?
A

(I) CCOC(=O)/C(C#N)=C/c1ccc(N(CC)CC)cc1 [Comparative Compound No. 1, reference compound]
(II) CN(C)c1ccc(/C=C(\C#N)C(=O)OCCCCCCCCCCOC(=O)/C(C#N)=C/c2ccc(N(C)C)cc2)cc1
Recorded ε values differ for I and II ; which one is higher? Could you answer with the label of the item you picked?
II
(II: 90800, I: 54900)

====

assay: Evaluation of absorption wavelength property in CHCl3 solution; format: physicochemical
quantity: λmax (nm)

>>> observed_measurement("CCN(CC)c1ccc(/C=C(\\C#N)C(=O)OCC(C)(COC(=O)/C(C#N)=C/c2ccc(N(CC)CC)cc2)COC(=O)/C(C#N)=C/c2ccc(N(c3ccccc3)c3ccccc3)cc2)cc1 (stereo not drawn)")
437
>>> observed_measurement("CCN(CC)c1ccc(/C=C(\\C#N)C(=O)OCCCOC(=O)/C(C#N)=C/c2ccc(N(CC)CC)cc2)cc1")
435
>>> observed_measurement("CCN(CC)c1ccc(/C=C(\\C#N)C(=O)NCC(C)NC(=O)/C(C#N)=C/c2ccc(N(CC)CC)cc2)cc1 (stereo not drawn)")
428

====

assay: Solubility in PGMEA; format: physicochemical; conditions: concentration when PGMEA was added dropwise to 0.1 g of the compound under stirring and was dissolved completely
quantity: Solubility (PGMEA) (wt %)

Reference set, count: 4
>>> observed_measurement("CCN(CC)c1ccc(/C=C(\\C#N)C(=O)OCC(C)(COC(=O)/C(C#N)=C/c2ccc(N(CC)CC)cc2)COC(=O)/C(C#N)=C/c2ccc(N(CC)CC)cc2)cc1")
5.6
>>> observed_measurement("CC(COC(=O)/C(C#N)=C/c1ccc(N(Cc2ccccc2)Cc2ccccc2)cc1)(COC(=O)/C(C#N)=C/c1ccc(N(Cc2ccccc2)Cc2ccccc2)cc1)COC(=O)/C(C#N)=C/c1ccc(N(Cc2ccccc2)Cc2ccccc2)cc1")
10.0
>>> observed_measurement("CCN(CC)c1ccc(/C=C(\\C#N)C(=O)OCC(C)(COC(=O)/C(C#N)=C/c2ccc(N(C)CCO)cc2)COC(=O)/C(C#N)=C/c2ccc(N(CC)CC)cc2)cc1 (centres unmarked)")
6.0
>>> observed_measurement("CCN(CC)c1ccc(/C=C(\\C#N)C(=O)OCC(C)OC(=O)/C(C#N)=C/c2ccc(N(CC)CC)cc2)cc1 (centres unmarked)")
4.0

(P) CCN(CC)c1ccc(/C=C(\C#N)C(=O)OCC(C)(COC(=O)/C(C#N)=C/c2ccc(N3CCOCC3)cc2)COC(=O)/C(C#N)=C/c2ccc(N3CCOCC3)cc2)cc1
(Q) CCN(CC)c1ccc(/C=C(\C#N)C(=O)OCCOC(=O)/C(C#N)=C/c2ccc(N(CC)CC)cc2)cc1
Recorded Solubility (PGMEA) values differ for P and Q ; which one is higher? Could you answer with the label of the item you picked?
P
(P: 10.0 wt %, Q: 0.5 wt %)

====

test: Evaluation of heat resistance by TG-DTA; type: physicochemical; details: temperature at 10% weight loss
quantity: 10% weight loss (°C)

>>> observed_measurement("CCN(CC)c1ccc(/C=C(\\C#N)C(=O)OCCCOC(=O)/C(C#N)=C/c2ccc(N(CC)CC)cc2)cc1")
329
>>> observed_measurement("CC(=O)OCCN(CCOC(C)=O)c1ccc(/C=C(\\C#N)C(=O)OCCCCCCCOC(=O)/C(C#N)=C/c2ccc(N(CCOC(C)=O)CCOC(C)=O)cc2)cc1")
366
>>> observed_measurement("CCN(CC)c1ccc(/C=C(\\C#N)C(=O)OCC(CC)(COC(=O)/C(C#N)=C/c2ccc(N(CC)CC)cc2)COC(=O)/C(C#N)=C/c2ccc(N(CC)CC)cc2)cc1")
339
>>> observed_measurement("CC(COC(=O)/C(C#N)=C/c1ccc(N(C)C)cc1)OC(=O)/C(C#N)=C/c1ccc(N(C)C)cc1 (stereo not shown)")
323
>>> observed_measurement("CCN(CC)c1ccc(/C=C(\\C#N)C(=O)OCCCCCOC(=O)/C(C#N)=C/c2ccc(N(CC)CC)cc2)cc1")
335
>>> observed_measurement("CCN(CC)c1ccc(/C=C(\\C#N)C(=O)Oc2ccc(-c3nc(-c4ccc(OC(=O)/C(C#N)=C/c5ccc(N(CC)CC)cc5)cc4)nc(-c4ccc(OC(=O)/C(C#N)=C/c5ccc(N(CC)CC)cc5)cc4)n3)cc2)cc1")
321
>>> observed_measurement("N#C/C(=C\\c1ccc(N(c2ccccc2)c2ccccc2)cc1)C(=O)OCCCCCCCOC(=O)/C(C#N)=C/c1ccc(N(c2ccccc2)c2ccccc2)cc1")
354
>>> observed_measurement("CCN(CC)c1ccc(/C=C(\\C#N)C(=O)OCC(COC(=O)/C(C#N)=C/c2ccc(N(CC)CC)cc2)(COC(=O)/C(C#N)=C/c2ccc(N(CC)CC)cc2)COC(=O)/C(C#N)=C/c2ccc(N(CC)CC)cc2)cc1")
328
>>> observed_measurement("CCN(CC)c1ccc(/C=C(\\C#N)C(=O)NCC(C)NC(=O)/C(C#N)=C/c2ccc(N(CC)CC)cc2)cc1 (stereo not shown)")
354
>>> observed_measurement("CCCCN(CCCC)c1ccc(/C=C(\\C#N)C(=O)OCC(C)(COC(=O)/C(C#N)=C/c2ccc(N(CCCC)CCCC)cc2)COC(=O)/C(C#N)=C/c2ccc(N(CCCC)CCCC)cc2)cc1")
354
>>> observed_measurement("CCOCCOC(=O)C(C#N)=C(C)c1ccc(N(CC)CC)cc1 [Comparative Compound No. 2, reference compound]")
252
>>> observed_measurement("N#C/C(=C\\c1ccc(N2CCOCC2)cc1)C(=O)OCCCCCCCOC(=O)/C(C#N)=C/c1ccc(N2CCOCC2)cc1")
350
>>> observed_measurement("CCN(CC)c1ccc(/C=C(\\C#N)C(=O)Oc2ccc(C3(c4ccc(OC(=O)/C(C#N)=C/c5ccc(N(CC)CC)cc5)cc4)CCCCC3)cc2)cc1")
322
>>> observed_measurement("CC(COC(=O)/C(C#N)=C/c1ccc(N(Cc2ccccc2)Cc2ccccc2)cc1)(COC(=O)/C(C#N)=C/c1ccc(N(Cc2ccccc2)Cc2ccccc2)cc1)COC(=O)/C(C#N)=C/c1ccc(N(Cc2ccccc2)Cc2ccccc2)cc1")
336
>>> observed_measurement("CCN(CC)c1ccc(/C=C(\\C#N)C(=O)OCCOC(=O)/C(C#N)=C/c2ccc(N(CC)CC)cc2)cc1")
318
>>> observed_measurement("CCN(CC)c1ccc(/C=C(\\C#N)C(=O)NCCCCCCNC(=O)/C(C#N)=C/c2ccc(N(CC)CC)cc2)cc1")
352
>>> observed_measurement("CCN(CC)c1ccc(/C=C(\\C#N)C(=O)OCC(C)(COC(=O)/C(C#N)=C/c2ccc(N(CC)CC)cc2)COC(=O)/C(C#N)=C/c2ccc(N(CC)CC)cc2)cc1")
334
>>> observed_measurement("CCN(CC)c1ccc(/C=C(\\C#N)C(=O)OCC(C)OC(=O)/C(C#N)=C/c2ccc(N(CC)CC)cc2)cc1 (stereo not shown)")
312
>>> observed_measurement("CCCCN(CCCC)c1ccc(/C=C(\\C#N)C(=O)Oc2ccc(S(=O)(=O)c3ccc(OC(=O)/C(C#N)=C/c4ccc(N(CCCC)CCCC)cc4)cc3)cc2)cc1")
324
>>> observed_measurement("CCN(CC)c1ccc(/C=C(\\C#N)C(=O)OCCCCCCCOC(=O)/C(C#N)=C/c2ccc(N(CC)CC)cc2)cc1")
348
>>> observed_measurement("CN(CCO)c1ccc(/C=C(\\C#N)C(=O)OCC(C)(COC(=O)/C(C#N)=C/c2ccc(N(C)CCO)cc2)COC(=O)/C(C#N)=C/c2ccc(N(C)CCO)cc2)cc1")
288
>>> observed_measurement("CCCCN(CCCC)c1ccc(/C=C(\\C#N)C(=O)Oc2ccc(C(c3ccc(OC(=O)/C(C#N)=C/c4ccc(N(CCCC)CCCC)cc4)cc3)(C(F)(F)F)C(F)(F)F)cc2)cc1")
336
